- Organism: Rattus norvegicus
- Test Method Notes: DrugMatrix - Regimen: Daily Repeat
- Type: toxicity, organism-based, Sprague-Dawley
- Design: regimen Daily Repeat, gender Male, age 6-8 weeks
- Condition Summary: in vivo, po, 10 mg/kg, 72 h, tissue Blood, route oral GAVAGE, dose level Low, time 3 day, vehicle .5 % CMC

{"Compound": "COc1c(C)c2c(c(O)c1C/C=C(\\C)CCC(=O)OCCN1CCOCC1)C(=O)OC2 [MYCOPHENOLATE MOFETIL]", "PLATELET COUNT": "1283 x10E3/uL"}
{"Compound": "O=C1CN=C(c2ccccc2)c2cc([N+](=O)[O-])ccc2N1 [NITRAZEPAM]", "PLATELET COUNT": "847 x10E3/uL"}
{"Compound": "CC(=O)O[C@]1(C(C)=O)CC[C@H]2[C@@H]3C=C(Cl)C4=CC(=O)CC[C@]4(C)[C@H]3CC[C@@]21C [CHLORMADINONE ACETATE]", "PLATELET COUNT": "925.33 x10E3/uL"}
{"Compound": "NS(=O)(=O)c1cc2c(cc1Cl)NCNS2(=O)=O [HYDROCHLOROTHIAZIDE]", "PLATELET COUNT": "1306 x10E3/uL"}

---

Here, each record is paired with measured MEAN CORPUSCULAR HEMOGLOBIN data.
- Species: Rattus norvegicus
- Test Method Notes: DrugMatrix - Regimen: Daily Repeat
- Assay type: toxicity, organism-based, Sprague-Dawley
- Set-up: regimen Daily Repeat, gender Male, age 6-8 weeks
- Condition Summary: in vivo, po, 10 mg/kg, 120 h, tissue Blood, route oral GAVAGE, dose level Low, time 5 day, vehicle .5 % CMC

{"Molecule": "O=C1CN=C(c2ccccc2)c2cc([N+](=O)[O-])ccc2N1", "Uom": "pg", "MEAN CORPUSCULAR HEMOGLOBIN": 24.07}
{"Molecule": "COc1c(C)c2c(c(O)c1C/C=C(\\C)CCC(=O)OCCN1CCOCC1)C(=O)OC2 [MYCOPHENOLATE MOFETIL]", "Uom": "pg", "MEAN CORPUSCULAR HEMOGLOBIN": 25}
{"Molecule": "CC(=O)O[C@]1(C(C)=O)CC[C@H]2[C@@H]3C=C(Cl)C4=CC(=O)CC[C@]4(C)[C@H]3CC[C@@]21C [CHLORMADINONE ACETATE]", "Uom": "pg", "MEAN CORPUSCULAR HEMOGLOBIN": 23.47}
{"Molecule": "NS(=O)(=O)c1cc2c(cc1Cl)NCNS2(=O)=O [HYDROCHLOROTHIAZIDE]", "Uom": "pg", "MEAN CORPUSCULAR HEMOGLOBIN": 24.03}

---

In this section we review reported LACTATE DEHYDROGENASE values for a set of compounds.
- Species: Rattus norvegicus
- Test Method Notes: DrugMatrix - Regimen: Daily Repeat
- Assay type: toxicity, organism-based, Sprague-Dawley
- Set-up: regimen Daily Repeat, gender Male, age 6-8 weeks
- Condition Summary: in vivo, po, 0 mg/kg, 120 h, tissue Plasma, route oral GAVAGE, dose level Control, time 5 day, vehicle 100 % WATER
Reported Endpoint: LACTATE DEHYDROGENASE (u/L)

{"Compound": "COc1cc2c(N3CCN(C(=O)Nc4ccc(OC(C)C)cc4)CC3)ncnc2cc1OCCCN1CCCCC1", "Value": 519.67}
{"Compound": "CN1CCN(C(=O)OC2c3nccnc3C(=O)N2c2ccc(Cl)cn2)CC1 (stereo not given)", "Value": 95}
{"Compound": "Clc1ccc(C(c2ccccc2Cl)C(Cl)Cl)cc1 (stereo not given)", "Value": 212.67}
{"Compound": "CC1COc2c(N3CCN(C)CC3)c(F)cc3c(=O)c(C(=O)O)cn1c23 (stereo not given)", "Value": 544.33}
{"Compound": "COc1cccc(C2(O)CCCCC2CN(C)C)c1 (stereo not given)", "Value": 146.17}
